Target: human CD33 Q24T (human, UniProt P20138 18-364)
Sequence (P20138 18-364 Q24T limits assumed): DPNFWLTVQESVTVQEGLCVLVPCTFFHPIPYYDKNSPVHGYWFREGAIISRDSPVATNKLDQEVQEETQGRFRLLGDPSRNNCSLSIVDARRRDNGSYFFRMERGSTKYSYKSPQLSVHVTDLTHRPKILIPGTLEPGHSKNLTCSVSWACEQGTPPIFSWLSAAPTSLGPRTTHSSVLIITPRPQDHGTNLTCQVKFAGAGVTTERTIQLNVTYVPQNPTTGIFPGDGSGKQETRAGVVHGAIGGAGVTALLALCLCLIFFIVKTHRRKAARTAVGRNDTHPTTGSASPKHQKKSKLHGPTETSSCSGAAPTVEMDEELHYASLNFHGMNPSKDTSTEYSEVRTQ
Experiment: flow cytometry, mutant on cells, IgG
experimental readout: Mean % WT Binding (% WT binding)
I only need the number, in % WT binding, no unit after it.

Refmab #4 (antibody, human IgG1, V domains shown, Tested in IgG format; human IgG1 Fc silent (PG-LALA)) VH: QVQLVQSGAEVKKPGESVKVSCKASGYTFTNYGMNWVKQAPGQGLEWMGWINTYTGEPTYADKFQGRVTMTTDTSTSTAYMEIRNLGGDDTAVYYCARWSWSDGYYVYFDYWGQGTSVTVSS VL: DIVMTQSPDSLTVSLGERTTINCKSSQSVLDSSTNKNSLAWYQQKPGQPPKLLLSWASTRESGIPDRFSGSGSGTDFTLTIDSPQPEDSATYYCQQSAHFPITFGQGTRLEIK : 97.2

The measured Mean % WT Binding associated with Refmab #3 (antibody, human IgG1, V domains shown, Tested in IgG format; human IgG1 Fc silent (PG-LALA)) VH: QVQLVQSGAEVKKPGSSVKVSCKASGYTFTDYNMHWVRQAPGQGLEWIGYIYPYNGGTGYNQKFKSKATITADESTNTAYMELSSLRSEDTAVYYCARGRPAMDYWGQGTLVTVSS VL: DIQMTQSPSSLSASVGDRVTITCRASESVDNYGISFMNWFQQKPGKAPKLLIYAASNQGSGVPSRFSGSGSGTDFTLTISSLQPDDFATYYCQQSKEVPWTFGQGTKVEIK reads 3.9

The recorded Mean % WT Binding for Refmab #1 (antibody, human IgG1, V domains shown, Tested in IgG format; human IgG1 (Absolute Antibody hP67.6, Cat. No. Ab00283-10.0); also called hP67.6) VH: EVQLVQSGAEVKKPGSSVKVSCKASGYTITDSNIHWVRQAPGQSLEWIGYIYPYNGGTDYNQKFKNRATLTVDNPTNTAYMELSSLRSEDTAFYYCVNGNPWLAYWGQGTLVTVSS VL: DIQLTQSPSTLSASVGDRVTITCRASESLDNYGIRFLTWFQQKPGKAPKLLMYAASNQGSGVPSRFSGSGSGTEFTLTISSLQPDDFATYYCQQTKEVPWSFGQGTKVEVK is 81.4

Field Mean % WT Binding (entry Refmab #2 (antibody, human IgG1, V domains shown, Tested in IgG format; human IgG1 Fc silent (PG-LALA)) VH: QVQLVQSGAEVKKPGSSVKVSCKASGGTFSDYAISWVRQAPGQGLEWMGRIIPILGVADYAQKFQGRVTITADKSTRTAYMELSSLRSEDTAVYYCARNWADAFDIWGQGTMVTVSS VL: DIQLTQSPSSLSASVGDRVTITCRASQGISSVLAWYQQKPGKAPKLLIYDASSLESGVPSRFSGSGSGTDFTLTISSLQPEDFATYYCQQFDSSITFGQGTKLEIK ) reads 95.2
